For each record, write down the corresponding GI50 of drug.
Tested on: CAKI-1
Test: GI50 of drug in presence of dasatinib; higher = less potent
Settings: treatment: drug + dasatinib (fixed dose, not stated); 5 days
Give the quantity in nM, number only.

Observed GI50 of drug on CAKI-1 for Nc1nc(Nc2ccc(S(N)(=O)=O)cc2)nn1C(=O)c1c(F)cccc1F + Cc1nc(Nc2ncc(C(=O)Nc3c(C)cccc3Cl)s2)cc(N2CCN(CCO)CC2)n1 , please. 1250

Observed GI50 of drug on CAKI-1 for CCN(CCO)CCCOc1ccc2c(Nc3cc(CC(=O)Nc4cccc(F)c4)n[nH]3)ncnc2c1 [Barasertib (AZD1152-HQPA)] + Cc1nc(Nc2ncc(C(=O)Nc3c(C)cccc3Cl)s2)cc(N2CCN(CCO)CC2)n1 , please. 678

Observed GI50 of drug on CAKI-1 for NC(=O)c1ccc(-c2nc(-c3ccc4c(c3)OCO4)c(-c3ccccn3)[nH]2)cc1 + Cc1nc(Nc2ncc(C(=O)Nc3c(C)cccc3Cl)s2)cc(N2CCN(CCO)CC2)n1 , please. 3000

Observed GI50 of drug on CAKI-1 for CCc1cnn2c(NCc3ccc[n+]([O-])c3)cc(N3CCCC[C@H]3CCO)nc12 + Cc1nc(Nc2ncc(C(=O)Nc3c(C)cccc3Cl)s2)cc(N2CCN(CCO)CC2)n1 , please. 7.08

---

Tested on: 786-O
Assay: GI50 of drug in presence of dasatinib; higher = less potent
Settings: treatment: drug + dasatinib (fixed dose, not stated); 5 days
observable: GI50 of drug (nM)
Give the quantity in nM, number only.

# GI50 of drug lookup, item COc1cc(CCc2cc(NC(=O)c3ccc(N4C[C@@H](C)N[C@@H](C)C4)cc3)n[nH]2)cc(OC)c1 [AZD4547] + Cc1nc(Nc2ncc(C(=O)Nc3c(C)cccc3Cl)s2)cc(N2CCN(CCO)CC2)n1 [dasatinib] 3540

# GI50 of drug lookup, item CNC(=O)c1c(F)cccc1Nc1nc(Nc2cc3c(cc2OC)CCN3C(=O)CN(C)C)nc2[nH]ccc12 + Cc1nc(Nc2ncc(C(=O)Nc3c(C)cccc3Cl)s2)cc(N2CCN(CCO)CC2)n1 [dasatinib] 686

# GI50 of drug lookup, item O=C(NC[C@H](O)CO)c1ccncc1Nc1ccc(I)cc1F + Cc1nc(Nc2ncc(C(=O)Nc3c(C)cccc3Cl)s2)cc(N2CCN(CCO)CC2)n1 [dasatinib] 89.8

# GI50 of drug lookup, item Cc1cc(Nc2cc(N3CCN(C)CC3)nc(/C=C/c3ccccc3)n2)n[nH]1.O=C(O)[C@H](O)[C@@H](O)C(=O)O [ENMD-2076] + Cc1nc(Nc2ncc(C(=O)Nc3c(C)cccc3Cl)s2)cc(N2CCN(CCO)CC2)n1 [dasatinib] 439

---

Test system: 769-P
Assay: AUC of dose-response viability curve, drug + dasatinib, normalised to DMSO (arbitrary (AUC of normalised viability)); higher = less growth inhibition
Details: treatment: drug + dasatinib (fixed dose, not stated); 5 days
For each record, write down the corresponding AUC of dose-response viability curve.
# print the numeric value only

# AUC of dose-response viability curve lookup, item COc1cc(Nc2ncc(F)c(Nc3ccc4c(n3)NC(=O)C(C)(C)O4)n2)cc(OC)c1OC.O=S(=O)(O)c1ccccc1 [R406] + Cc1nc(Nc2ncc(C(=O)Nc3c(C)cccc3Cl)s2)cc(N2CCN(CCO)CC2)n1 2.23

# AUC of dose-response viability curve lookup, item COc1cc(CCc2cc(NC(=O)c3ccc(N4C[C@@H](C)N[C@@H](C)C4)cc3)n[nH]2)cc(OC)c1 [AZD4547] + Cc1nc(Nc2ncc(C(=O)Nc3c(C)cccc3Cl)s2)cc(N2CCN(CCO)CC2)n1 2.51

# AUC of dose-response viability curve lookup, item COc1cccc(-c2cc(=O)c3ccccc3o2)c1N + Cc1nc(Nc2ncc(C(=O)Nc3c(C)cccc3Cl)s2)cc(N2CCN(CCO)CC2)n1 2.48

# AUC of dose-response viability curve lookup, item COCCOc1ccc2c(c1)ncn2-c1ccc2cccc(N3CCC(N)CC3)c2n1 + Cc1nc(Nc2ncc(C(=O)Nc3c(C)cccc3Cl)s2)cc(N2CCN(CCO)CC2)n1 2.23

# AUC of dose-response viability curve lookup, item Cc1ccc(C(=O)Nc2cccc(C(F)(F)F)c2)cc1Nc1nc(-c2cccnc2)nc2c1cnn2C [NVP-BHG712] + Cc1nc(Nc2ncc(C(=O)Nc3c(C)cccc3Cl)s2)cc(N2CCN(CCO)CC2)n1 2.16

# AUC of dose-response viability curve lookup, item O=c1cc(-c2cccc3c2Sc2ccccc2S3)oc(N2CCOCC2)c1 + Cc1nc(Nc2ncc(C(=O)Nc3c(C)cccc3Cl)s2)cc(N2CCN(CCO)CC2)n1 2.38

# AUC of dose-response viability curve lookup, item C=CC(=O)Nc1ccc2ncnc(Nc3ccc(OCc4cccc(F)c4)c(Cl)c3)c2c1.Cc1ccc(S(=O)(=O)O)cc1 [AST-1306] + Cc1nc(Nc2ncc(C(=O)Nc3c(C)cccc3Cl)s2)cc(N2CCN(CCO)CC2)n1 1.82

# AUC of dose-response viability curve lookup, item O=C(Nc1ccc(OC(F)(F)F)cc1)c1sccc1NCc1ccnc2ccccc12 [OSI-930] + Cc1nc(Nc2ncc(C(=O)Nc3c(C)cccc3Cl)s2)cc(N2CCN(CCO)CC2)n1 2.23

# AUC of dose-response viability curve lookup, item Cc1cc(Nc2cc(CN3CCOCC3)c3nc(C)c(Cc4ccc(Cl)cc4F)n3n2)[nH]n1 + Cc1nc(Nc2ncc(C(=O)Nc3c(C)cccc3Cl)s2)cc(N2CCN(CCO)CC2)n1 2.24

Numbers sourced from the supplement of paper PMC8149375.
